# tgt: human ether-à-go-go-related gene (hERG) potassium channel (human)
# assayNotes: primary screen, population patch clamp on CHO cells stably expressing hERG; higher = less effect of the substance
Out of some 310,000 compounds screened, about 2,200 (0.71%) showed an effect of 50% or more. Effects have a minus sign here. What follows is part of a selection rich in strong results, with near analogues and random picks from the rest.
propertyLabel: hERG current change (%, negative = inhibition) at 1uM (%)
Enter your answer as a number in %; do not include the unit.

In the examples that follow, each entry is paired with its recorded hERG current change (%, negative = inhibition) at 1uM.
- compound: "COc1cccc(C2CCCN2Cc2nc(CC3CC3)no2)c1 (stereo not shown)"
  displayUnit: "%"
  quantitativeReadout: 14.5
- compound: "COc1ccc(-c2[nH]ncc2CN2CCCC(C(=O)c3cccc(OC)c3)C2)cc1 (stereo not shown)"
  displayUnit: "%"
  quantitativeReadout: -29.5
- compound: "CC(=O)Oc1ccc(/C=C(\\NC(=O)c2ccco2)C(=O)NCc2ccco2)cc1"
  displayUnit: "%"
  quantitativeReadout: -11
- compound: "CC(C)(C)NC(=O)c1c(F)c(F)c(F)c(F)c1F"
  displayUnit: "%"
  quantitativeReadout: 4.34
- compound: "CC(=O)Nc1ccc(S(=O)(=O)N2CCC(n3cnc4cc(F)ccc43)CC2)cc1"
  displayUnit: "%"
  quantitativeReadout: -26.4
- compound: "COc1ccc(C(=O)C2CCCN(Cc3cn[nH]c3-c3ccc(F)cc3)C2)cc1OC (stereo not shown)"
  displayUnit: "%"
  quantitativeReadout: -25.9

Request: So what does the record say about hERG current change (%, negative = inhibition) at 1uM for `O=C(NCCc1ccccc1)/C(=C\c1ccc([N+](=O)[O-])cc1)NC(=O)c1ccco1` ?
Result: -59

Request: Which value of hERG current change (%, negative = inhibition) at 1uM has been reported for COc1ccc(C(=O)C2CCCN(Cc3c(O)cccc3OC)C2)cc1OC (stereo not shown) in the records?
Result: -7.05

Request: Entry under review: `CCOc1ccc(NC(=O)CN2CCC(n3cnc4cc(F)ccc43)CC2)cc1` . Reported hERG current change (%, negative = inhibition) at 1uM?
Result: -71.7

---

# tgt: human ether-à-go-go-related gene (hERG) potassium channel (human, UniProt Q12809)
# Sequence (Q12809 whole entry, looked up): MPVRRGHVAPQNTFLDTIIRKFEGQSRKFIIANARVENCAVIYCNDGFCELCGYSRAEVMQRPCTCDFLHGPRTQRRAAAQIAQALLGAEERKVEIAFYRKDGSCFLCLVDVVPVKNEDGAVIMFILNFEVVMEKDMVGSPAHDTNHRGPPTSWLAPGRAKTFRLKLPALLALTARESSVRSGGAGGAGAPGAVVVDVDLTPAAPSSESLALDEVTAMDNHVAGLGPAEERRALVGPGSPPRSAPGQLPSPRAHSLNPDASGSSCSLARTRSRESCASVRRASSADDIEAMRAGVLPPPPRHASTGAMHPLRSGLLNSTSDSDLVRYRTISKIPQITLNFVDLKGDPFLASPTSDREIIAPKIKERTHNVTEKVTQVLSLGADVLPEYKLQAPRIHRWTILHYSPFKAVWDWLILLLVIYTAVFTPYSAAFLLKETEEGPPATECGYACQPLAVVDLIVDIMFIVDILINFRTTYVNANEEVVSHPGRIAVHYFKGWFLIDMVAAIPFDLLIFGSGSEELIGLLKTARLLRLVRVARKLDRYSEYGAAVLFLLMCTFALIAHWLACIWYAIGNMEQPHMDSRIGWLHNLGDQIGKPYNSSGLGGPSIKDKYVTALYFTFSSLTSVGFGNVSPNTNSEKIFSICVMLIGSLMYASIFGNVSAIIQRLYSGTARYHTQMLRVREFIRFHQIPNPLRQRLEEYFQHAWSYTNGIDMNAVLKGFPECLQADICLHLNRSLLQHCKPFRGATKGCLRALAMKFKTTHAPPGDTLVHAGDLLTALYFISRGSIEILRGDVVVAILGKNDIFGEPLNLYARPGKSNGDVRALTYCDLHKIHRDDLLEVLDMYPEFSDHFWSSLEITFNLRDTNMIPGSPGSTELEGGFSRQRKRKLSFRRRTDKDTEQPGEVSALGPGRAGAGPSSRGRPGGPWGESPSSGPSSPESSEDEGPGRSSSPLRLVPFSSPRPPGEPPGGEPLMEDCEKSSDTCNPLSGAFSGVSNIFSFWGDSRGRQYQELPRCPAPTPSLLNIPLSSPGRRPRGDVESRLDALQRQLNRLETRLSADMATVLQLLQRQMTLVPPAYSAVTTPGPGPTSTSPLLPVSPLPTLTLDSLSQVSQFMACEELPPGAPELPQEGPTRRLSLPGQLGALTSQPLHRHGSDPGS
# assayNotes: primary screen, population patch clamp on CHO cells stably expressing hERG; higher = less effect of the substance
# Source text: Briefly, Chinese hamster ovary (CHO) cells stably expressing the hERG channel were dislodged from tissue culture flasks and dispensed into PPC plates. […] Small molecule effects on hERG current density were quantified by […].
Among all 310,000 compounds or so, about 2,200 (0.71%) showed an effect of 50% or more. Effects have a minus sign here. The sample holds strong results, similar compounds and a random draw of the others, so the mix is not that of the screen.
Parameter hERG current change (%, negative = inhibition) at 1uM: see the listing below.
Write the answer as a number in %, unit excluded.

Request: Requested field: hERG current change (%, negative = inhibition) at 1uM. Item: `Cc1ccc(NC(=O)NC2CCCCCCC2)cc1C`
Result: 11.5

Request: Which hERG current change (%, negative = inhibition) at 1uM value belongs to `CCc1cc(=O)oc2c(C)c(OCC(=O)NCCCn3ccnc3)ccc12` ?
Result: 5.28

Request: Given the compound `O=C(COc1nncc2ccccc12)NCCC1=CCCCC1` , what is its reported hERG current change (%, negative = inhibition) at 1uM?
Result: 9.4

---

# tgt: human ether-à-go-go-related gene (hERG) potassium channel (human, UniProt Q12809)
# assayNotes: primary screen, population patch clamp on CHO cells stably expressing hERG; higher = less effect of the substance
The whole screen tested about 310,000 compounds, of which about 2,200 (0.71%) showed an effect of 50% or more. Effects have a minus sign here. The entries come from a sample that favours strong results as a whole.
propertyLabel: hERG current change (%, negative = inhibition) at 1uM (%)
The reply should contain only the number, in %.

Reference set (3 entries):
- molSmiles: "COc1ccc(C[C@H]2CN3C(=NC[C@@H]3Cc3ccccc3)N2CCNC(=O)c2ccc(C)c(Br)c2)cc1"
  quantitativeReadout: -16.7
- molSmiles: "Cc1ccc(C(=O)NCCN2C3=NC[C@H](C)N3C[C@H]2Cc2ccc(O)cc2)cc1Br"
  quantitativeReadout: 9.94
- molSmiles: "COc1ccc(C[C@@H]2CN3C(=NC[C@@H]3C)N2CCNC(=O)c2ccc(C)c(Br)c2)cc1"
  quantitativeReadout: -64.9

Request: // returns reported hERG current change (%, negative = inhibition) at 1uM for input `COc1ccc(C[C@H]2CN3C(=NC[C@@H]3C(C)C)N2CCNC(=O)c2ccc(C)c(Br)c2)cc1`
Result: -66.8

---

# tgt: human ether-à-go-go-related gene (hERG) potassium channel (human, UniProt Q12809)
# assayNotes: primary screen, population patch clamp on CHO cells stably expressing hERG; higher = less effect of the substance
Hit rate of the full screen: of about 310,000 compounds, about 2,200 (0.71%) showed an effect of 50% or more. Effects have a minus sign here. The entries come from a sample that favours strong results as a whole.
propertyLabel: hERG current change (%, negative = inhibition) at 1uM

Worked examples follow.
- compound: "COc1ccc(/C=C/CN2CCN(Cc3ccccc3)C(CCO)C2)cc1 (centres unmarked)"
  result: "-28.9%"
- compound: "c1ccc(Cn2c3ccccc3c3nnc(SCCN4CCCCC4)nc32)cc1"
  result: "-6.31%"
- compound: "CCN(CC)CCSc1nnc2c3ccccc3n(CCc3ccccc3)c2n1"
  result: "-18.1%"
- compound: "CCN(CC)CCSc1nnc2c3ccccc3n(Cc3ccccc3)c2n1"
  result: "-73.4%"

Request: Recorded hERG current change (%, negative = inhibition) at 1uM for CCOc1ccccc1CN1CCN(C/C=C/c2ccc(OC)cc2)CC1CCO (centres unmarked) with human ether-à-go-go-related gene (hERG) potassium channel (human, UniProt Q12809), please?
Result: -13.6%

---

# tgt: human ether-à-go-go-related gene (hERG) potassium channel (human)
# assayNotes: primary screen, population patch clamp on CHO cells stably expressing hERG; higher = less effect of the substance
Out of some 310,000 compounds screened, about 2,200 (0.71%) showed an effect of 50% or more. Effects have a minus sign here. The full list was thinned out, with strong results kept by preference.
propertyLabel: hERG current change (%, negative = inhibition) at 1uM (%)
Reply numerically in %, unit not repeated.

Field: example entries. Status: answers known.
- compound: "CCOC(=O)N1CCN(c2c(NCCCN(C)c3ccccc3)c(=O)c2=O)CC1"
  tgt: "human ether-à-go-go-related gene (hERG) potassium channel (human)"
  displayUnit: "%"
  quantitativeReadout: 9.53
- compound: "Cc1noc(C)c1CSCC(=O)N1CCN(c2ccc(F)cc2)CC1"
  tgt: "human ether-à-go-go-related gene (hERG) potassium channel (human)"
  displayUnit: "%"
  quantitativeReadout: -17.9
- compound: "Cc1ccc(C(=O)N/C(=C\\c2cccs2)C(=O)N2CCOCC2)cc1C"
  tgt: "human ether-à-go-go-related gene (hERG) potassium channel (human)"
  displayUnit: "%"
  quantitativeReadout: 1.26
- compound: "CCCCCCC(=O)Nc1ccc(Cl)cn1"
  tgt: "human ether-à-go-go-related gene (hERG) potassium channel (human)"
  displayUnit: "%"
  quantitativeReadout: 12.1
- compound: "CCNS(=O)(=O)c1ccc(CCC(=O)N2CCN(c3ccccc3)CC2)cc1"
  tgt: "human ether-à-go-go-related gene (hERG) potassium channel (human)"
  displayUnit: "%"
  quantitativeReadout: 3.97

Request: Notebook: pull reported hERG current change (%, negative = inhibition) at 1uM for human ether-à-go-go-related gene (hERG) potassium channel (human), entry `O=C(CCCSc1nc2ccccc2[nH]1)N1CCN(c2ccc([N+](=O)[O-])cc2)CC1`
Result: -86.9

Request: Kindly state the measured hERG current change (%, negative = inhibition) at 1uM obtained for `Cc1ccc(C(=O)N/C(=C/c2cccs2)C(=O)N2CCCCC2)cc1` with human ether-à-go-go-related gene (hERG) potassium channel (human).
Result: 10.6

Request: Report hERG current change (%, negative = inhibition) at 1uM for `CC(C)OCCCN1CN(S(=O)(=O)c2ccc(Cl)cc2)c2nc3ccccc3nc21` tested on human ether-à-go-go-related gene (hERG) potassium channel (human).
Result: 13.8

Request: human ether-à-go-go-related gene (hERG) potassium channel (human) / hERG current change (%, negative = inhibition) at 1uM / COc1cccc(N2CCN(C(=O)CC(NC(=O)c3ccccc3)c3ccccc3)CC2)c1 (stereo not shown) : value?
Result: -27

Request: Query the reported hERG current change (%, negative = inhibition) at 1uM for human ether-à-go-go-related gene (hERG) potassium channel (human); item: `COc1ccc(C(=O)N/C(=C\c2cccs2)C(=O)N2CCN(C)CC2)cc1OC`
Result: -33.9

Request: Lab note: need hERG current change (%, negative = inhibition) at 1uM with human ether-à-go-go-related gene (hERG) potassium channel (human) for entry N#Cc1ccc(CN2CCN(C(=O)CC(NC(=O)c3ccccc3)c3ccccc3)CC2)cc1 (stereo not shown) , please look it up.
Result: -84.7

Request: Find the measured hERG current change (%, negative = inhibition) at 1uM: item `CC(C)CNS(=O)(=O)c1ccc(CCC(=O)N2CCN(c3ccc(F)cc3)CC2)cc1` , target or system human ether-à-go-go-related gene (hERG) potassium channel (human).
Result: -9.44

Request: Short answer please: hERG current change (%, negative = inhibition) at 1uM, human ether-à-go-go-related gene (hERG) potassium channel (human), entry `CN1CCN(NC(=O)c2ccccc2F)CC1`
Result: 11.7

Request: Give recorded hERG current change (%, negative = inhibition) at 1uM with human ether-à-go-go-related gene (hERG) potassium channel (human) for the following compound: `CCOC(=O)N1CCN(C(=O)/C(=C/c2cccs2)NC(=O)c2ccc(OC)c(OC)c2)CC1`
Result: -64.7

Request: Requested read-out hERG current change (%, negative = inhibition) at 1uM, target or system human ether-à-go-go-related gene (hERG) potassium channel (human), entry COCCCN1C(=O)C(=O)/C(=C(/O)c2ccc(S(=O)(=O)N3CCOCC3)cc2)C1c1ccc(F)cc1 (stereo not shown)
Result: 6.04

Request: hERG current change (%, negative = inhibition) at 1uM of `O=C(NCc1ccco1)c1n[nH]c(=O)c2ccccc12` on human ether-à-go-go-related gene (hERG) potassium channel (human)?
Result: 11.8

Request: Reported hERG current change (%, negative = inhibition) at 1uM for human ether-à-go-go-related gene (hERG) potassium channel (human), given `CC(C)CNS(=O)(=O)c1ccc(CCC(=O)N2CCN(c3ccccc3)CC2)cc1` ?
Result: -61.5

Request: What reported hERG current change (%, negative = inhibition) at 1uM corresponds to `CC[C@@]12C(=O)N(c3cccc(Br)c3)C(=O)N1[C@H](c1ccc(Cl)cc1)[C@@H]1C(=O)N(C3CCCCC3)C(=O)[C@@H]12` on human ether-à-go-go-related gene (hERG) potassium channel (human)?
Result: 6.83

Request: Query for human ether-à-go-go-related gene (hERG) potassium channel (human): what hERG current change (%, negative = inhibition) at 1uM does the record show for `COc1ccc(-c2n[nH]c(C)c2-c2ccc(Cl)cc2)c(O)c1` ?
Result: 10.2
